Cited source: the supplement of paper PMC6755084

Could you please report measured fraction ligated for the items listed next?
B1: minF1; a variant is named by its letters at N, in order (parent)
chain: GAGACCGCAACTGAAAAGTTGTTNNNNAANNNNNGGNTNAATTTCTGCACGTAGAAGCAAAAGGC

# Variants of: B1
# method: fraction ligated after 30 min (ligated reads / total reads); higher = more ligase activity
# particulars: with F1*subA RNA substrate (template-directed ligation), 42 °C
# respond with the number and nothing more

In: Name the reported fraction ligated value associated with the variant GAGACCGCAACTGAAAAGTTGTTATAGAAATGGATGGTTAATTTCTGCACGTAGAAGCAAAAGGC [ATAGATGGAGT G35T]
Out: 0.00557

In: Data request, read-out fraction ligated, for GAGACCGCAACTGAAAAGTTGTTATCGAAATGGATGGGTTATTTCTGCACGTAGAAGCAAAAGGC [ATCGATGGAGT G35T T38G A40T]
Out: 0.0031

In: Given the variant GAGACCGCAACTGAAAAGTTGTATCAGAAATGAGGGTTGAATTTCTGCACGTAGAAGCAAAAGGC [TCAGATGAGTG T23A] , what is its reported fraction ligated?
Out: 0.00316

In: Fill blank: measured fraction ligated of the variant GAGACCGCAACTGAAAAGTTGTTATCGAAAGGTGGGTTGAATTTCTGCACGTAGAAGCAAAAGGC [ATCGAGGTGTG] is ____.
Out: 0.00503

In: Form field: reported fraction ligated of GAGACCGCAACTGAAAAGTTGTATAGAAATGGATGGTTGAATTTCTGCACGTAGAAGCAAAAGGC [TAGATGGATTG T23A]
Out: 0.00337

In: Dear colleague, I am looking for the recorded fraction ligated of the following variant: GAGACCGCAACTGAAAAGTTGTTATCAGAATGGAGGGTTAATTTCTGCACGTAGAAGCAAAAGGC [ATCAATGGAGT A28G]
Out: 0.00328

In: Reported fraction ligated, variant GAGACCGCAACTGAAAAGTTGTTACAGAAATGGATGGGTTATTTCTGCACGTAGAAGCAAAAGGC [ACAGATGGAGT G35T T38G A40T] : ____
Out: 0.00236

In: Given the entry GAGACCGCAACTGAAAAGTTGTTATCAAAATGAGGGTTGAATTTCTGCACGTAGAAGCAAAAGGC [ATCAATGAGTG] , report its measured fraction ligated.
Out: 0.003

In: What fraction ligated value was documented for this variant, GAGACCGCAACTGAAAAGTTGTTATGAATGGATGGGTTGAATTTCTGCACGTAGAAGCAAAAGGC [ATGAGGATGTG A29T] ?
Out: 0.0247

In: Requested field: fraction ligated. Item: GAGACCGCAACTGAAAAGTTGTTTCAAAATGGAGGGTTGAATTTCTGCACGTAGAAGCAAAAGGC [TCAATGGAGTG]
Out: 0.00287

In: Given the entry GAGACCGCAACTGAAAAGTTGTTATCAGATGATGGGTTGAATTTCTGCACGTAGAAGCAAAAGGC [ATCATGATGTG A28G] , report its measured fraction ligated.
Out: 0.00487

In: For the variant shown here, GAGACCGCAACTGAAAAGTTGTTACAGAATGGATGGTTGAATTTCTGCACGTAGAAGCAAAAGGC [ACAGTGGATTG] , give the reported fraction ligated.
Out: 0.013

In: Reported fraction ligated, variant GAGACCGCAACTGAAAAGTTGTTTCAAAAGGATGGGTTGAATTTCTGCACGTAGAAGCAAAAGGC [TCAAGGATGTG] : ____
Out: 0.00272

In: Would you mind telling me what fraction ligated value was observed for GAGACCGCAACTGAAAAGTTGTATCAAAATGGAGGGTTGAATTTCTGCACGTAGAAGCAAAAGGC [TCAATGGAGTG T23A] ?
Out: 0.00168

In: So what's the measured fraction ligated for this one? GAGACCGCAACTGAAAAGTTGTATCAGAAATGGTGGGTTGATTTCTGCACGTAGAAGCAAAAGGC [TCAGATGGTGT T23A A40G]
Out: 0.00684

In: # lookup: fraction ligated of GAGACCGCAACTGAAAAGTTGTTATCGAAATGGTGGGTTAATTTCTGCACGTAGAAGCAAAAGGC [ATCGATGGTGT]
Out: 0.00463

In: Dear colleague, I am looking for the recorded fraction ligated of the following variant: GAGACCGCAACTGAAAAGTTGTTACAGAAATGGAGGGTTGATTTCTGCACGTAGAAGCAAAAGGC [ACAGATGGAGT A40G]
Out: 0.00662

In: Field request: fraction ligated | item: GAGACCGCAACTGAAAAGTTGTTATAGAAATGGAGGTTGAATTTCTGCACGTAGAAGCAAAAGGC [ATAGATGGATG]
Out: 0.00358

In: Fill blank: measured fraction ligated of the variant GAGACCGCAACTGAAAAGTTGTTATCAGAATGGATGGGTTGTTTCTGCACGTAGAAGCAAAAGGC [ATCAATGGAGT A28G G35T T38G A40T A41G] is ____.
Out: 0.00208

In: Report fraction ligated for GAGACCGCAACTGAAAAGTTGTTAAGAAATGGTGGGTTGAATTTCTGCACGTAGAAGCAAAAGGC [AAGATGGTGTG] please.
Out: 0.00306

In: Could you share which fraction ligated value was measured for GAGACCGCAACTGAAAAGTTGTTAAGAAATGATGGGTTGAATTTCTGCACGTAGAAGCAAAAGGC [AAGATGATGTG] ?
Out: 0.0055

In: // query fraction ligated value for entry GAGACCGCAACTGAAAAGTTGTTACAGAAATGGATGGGTTGTTTCTGCACGTAGAAGCAAAAGGC [ACAGATGGAGT G35T T38G A40T A41G]
Out: 0.000565

In: So what's the measured fraction ligated for this one? GAGACCGCAACTGAAAAGTTGTTATAGAAAGGTGGGTTGAATTTCTGCACGTAGAAGCAAAAGGC [ATAGAGGTGTG]
Out: 0.00246

In: Given the variant GAGACCGCAACTGAAAAGTTGTTTCAGAAATATGGGTTGAATTTCTGCACGTAGAAGCAAAAGGC [TCAGATATGTG] , what is its reported fraction ligated?
Out: 0.000901

In: Query (variant): GAGACCGCAACTGAAAAGTTGTTTCAGAAGGATGGGTTGAATTTCTGCACGTAGAAGCAAAAGGC [TCAGGGATGTG] ; field requested: fraction ligated
Out: 0.00365

In: Look up fraction ligated: GAGACCGCAACTGAAAAGTTGTTCGAAATGGATGGGTTGAATTTCTGCACGTAGAAGCAAAAGGC [CGAAGGATGTG A29T]
Out: 0.0086

In: Tell me the measured fraction ligated of GAGACCGCAACTGAAAAGTTGTTTAGAATGGATGGGTTGAATTTCTGCACGTAGAAGCAAAAGGC [TAGAGGATGTG A29T] , please.
Out: 0.0101

In: Query: fraction ligated; subject: GAGACCGCAACTGAAAAGTTGTTATCAGAATGATGGTTGAATTTCTGCACGTAGAAGCAAAAGGC [ATCAATGATTG A28G]
Out: 0.00338

In: Which fraction ligated is reported for this variant? GAGACCGCAACTGAAAAGTTGTTATAGAAAGGATGGGTTAATTTCTGCACGTAGAAGCAAAAGGC [ATAGAGGATGT]
Out: 0.00209

In: What fraction ligated value was documented for this variant, GAGACCGCAACTGAAAAGTTGTTATCAAATGGAGGGTTGAATTTCTGCACGTAGAAGCAAAAGGC [ATCATGGAGTG] ?
Out: 0.00635

In: Fill in: fraction ligated of GAGACCGCAACTGAAAAGTTGTTATCAGAAGGATGGGTTGATTTCTGCACGTAGAAGCAAAAGGC [ATCAAGGATGT A28G A40G] is ___
Out: 0.0268

In: # query: fraction ligated of entry GAGACCGCAACTGAAAAGTTGTTACAAAATGGTGGGTTGAATTTCTGCACGTAGAAGCAAAAGGC [ACAATGGTGTG]
Out: 0.00249

In: Need fraction ligated, item GAGACCGCAACTGAAAAGTTGTTTCAGAAAGGATGGGTTAATTTCTGCACGTAGAAGCAAAAGGC [TCAGAGGATGT]
Out: 0.00375

In: # lookup: fraction ligated of GAGACCGCAACTGAAAAGTTGTTTCAGAAATGTGGGTTGAATTTCTGCACGTAGAAGCAAAAGGC [TCAGATGTGTG]
Out: 0.00186

In: What value of measured fraction ligated is listed for GAGACCGCAACTGAAAAGTTGTTATCGAAATGATGGGTTAATTTCTGCACGTAGAAGCAAAAGGC [ATCGATGATGT] ?
Out: 0.00439

In: Sample GAGACCGCAACTGAAAAGTTGTTATAGAAATGGTGGTTGAATTTCTGCACGTAGAAGCAAAAGGC [ATAGATGGTTG] — what was its fraction ligated?
Out: 0.00545

In: What does the record list as fraction ligated for GAGACCGCAACTGAAAAGTTGTATCAGAAGGATGGGTTGAATTTCTGCACGTAGAAGCAAAAGGC [TCAGGGATGTG T23A] ?
Out: 0.00448

In: Record request: fraction ligated value, item GAGACCGCAACTGAAAAGTTGTTAAGAAATGGATGGGTTAATTTCTGCACGTAGAAGCAAAAGGC [AAGATGGATGT]
Out: 0.0029

In: // fraction ligated lookup, key: GAGACCGCAACTGAAAAGTTGTTATCAGAAATTGGGTTGAATTTCTGCACGTAGAAGCAAAAGGC [ATCAAATTGTG A28G]
Out: 0.00273

In: Fill in: fraction ligated of GAGACCGCAACTGAAAAGTTGTACAGAAATGGATGGTTGAATTTCTGCACGTAGAAGCAAAAGGC [CAGATGGATTG T23A] is ___
Out: 0.00704

In: What does the record list as fraction ligated for GAGACCGCAACTGAAAAGTTGTTATCAGAAAGGTGGGTTGATTTCTGCACGTAGAAGCAAAAGGC [ATCAAAGGTGT A28G A40G] ?
Out: 0.00781

In: // lookup fraction ligated for GAGACCGCAACTGAAAAGTTGTATCAGAAAGGTGGGTTGAATTTCTGCACGTAGAAGCAAAAGGC [TCAGAGGTGTG T23A]
Out: 0.0038

In: Look up fraction ligated: GAGACCGCAACTGAAAAGTTGTTAAGAAATGGAGGGTTGAATTTCTGCACGTAGAAGCAAAAGGC [AAGATGGAGTG]
Out: 0.000852

In: // returns reported fraction ligated for input GAGACCGCAACTGAAAAGTTGTTTAAAATGGATGGGTTGAATTTCTGCACGTAGAAGCAAAAGGC [TAAAGGATGTG A29T]
Out: 0.00359

In: Any idea what fraction ligated was measured for GAGACCGCAACTGAAAAGTTGTTATCAGAATGGTGGGTTAATTTCTGCACGTAGAAGCAAAAGGC [ATCAATGGTGT A28G] ?
Out: 0.00146

In: Look at this variant and give its reported fraction ligated. GAGACCGCAACTGAAAAGTTGTTTGAAATGGATGGGTTGAATTTCTGCACGTAGAAGCAAAAGGC [TGAAGGATGTG A29T]
Out: 0.00393
